I'd appreciate it if you could supply NF-kB SEAP reporter activity values for the items below.
Test system: RAW-Dual
Experiment: NF-kB SEAP reporter activity, fold change vs agonist alone; higher = enhanced NF-kB activity
Details: library stock concentration (final ~1000-fold dilution): 10 mM; cytotoxicity flag (confluency mask): not cytotoxic; agonist: Imiquimod (TLR7) […]
The full ranking holds about 2,900 compounds; the median of “NF-kB SEAP reporter activity, fold change vs agonist alone” is about 0.99, and the highest 2% start at about 2.6. Only a selection was taken, and the highest values are over-represented in it overall.
The reply should be a number, written without any unit.

**Query** # value lookup — system RAW-Dual, readout NF-kB SEAP reporter activity, item "CC(=O)C(=O)Oc1ccccc1C(=O)O"
**Result** 1.46

**Query** # returns recorded NF-kB SEAP reporter activity (system: RAW-Dual) for CC1(C)OC(=O)C=CC2(C)C1CC(=O)C1(C)C2CCC2(C)C(c3ccoc3)OC(=O)C3OC321 (stereo unspecified)
**Result** 0.98

**Query** // lookup NF-kB SEAP reporter activity | system=RAW-Dual | key= O=C(/C=C/c1ccc(O)c(O)c1)O[C@@H]1CC(O)(C(=O)O)C[C@@H](OC(=O)/C=C/c2ccc(O)c(O)c2)C1O (stereo partly specified)
**Result** 0.841

**Query** Item "COc1cc(C(=O)N(CCCc2ccccc2)Cc2ccc(CC(=O)O)cc2)cc(OC)c1C" with RAW-Dual - NF-kB SEAP reporter activity?
**Result** 1.1

**Query** # query: NF-kB SEAP reporter activity | item O=C1OC(=O)C2C3CCC(O3)C12 (stereo unspecified) | system: RAW-Dual
**Result** 1.93

**Query** For RAW-Dual, provide NF-kB SEAP reporter activity of Cc1n[nH]c2ccc(-c3cncc(OCC(N)Cc4ccccc4)c3)cc12 (stereo unspecified) please.
**Result** 0.904

**Query** Quick check: NF-kB SEAP reporter activity on RAW-Dual, item CC(Nc1ncnc2[nH]cnc12)c1cc2cccc(Cl)c2c(=O)n1-c1ccccc1 (stereo unspecified) ?
**Result** 0.473

**Query** API: value(readout=NF-kB SEAP reporter activity, system=RAW-Dual) for record "CC(C)n1cnc2c(NCCc3ccc(O)cc3)nc(-c3csc4ccccc34)nc21"
**Result** 2.38

**Query** Form entry - test system: RAW-Dual; read-out: NF-kB SEAP reporter activity; compound: CC(NC(=O)c1ncnc(N)c1Cl)c1ncc(C(=O)Nc2cc(C(F)(F)F)c(Cl)cn2)s1 (stereo unspecified)
**Result** 0.623

**Query** For RAW-Dual, provide NF-kB SEAP reporter activity of COC1CCC(N2C(=O)CNc3ncc(-c4ccc(C(C)(C)O)nc4)nc32)CC1 (stereo unspecified) please.
**Result** 0.711

**Query** Item "N#Cc1cccc(-c2c[nH]c3ncnc(N4CCOCC4)c23)c1" with RAW-Dual - NF-kB SEAP reporter activity?
**Result** 1.01

**Query** Lab note: need NF-kB SEAP reporter activity with RAW-Dual for entry "C=CC(=O)Nc1cccc(Nc2nc(Nc3ccc(OCCOC)cc3)ncc2F)c1" , please look it up.
**Result** 1.11

**Query** Find NF-kB SEAP reporter activity (RAW-Dual) for the entry "Cc1ccc(CNc2ncnc3ccc(-c4ccc(CO)o4)cc23)o1"
**Result** 1.07

**Query** API: value(readout= NF-kB SEAP reporter activity, system= RAW-Dual, query= "COc1cc2c(cc1NS(=O)(=O)c1ccc(Br)cc1C)n(C)c(=O)n2C" )
**Result** 0.973

**Query** Give RAW-Dual NF-kB SEAP reporter activity for "CC1(C)OCCn2c1nc1c(N3CCOCC3)nc(-c3cnc(N)nc3)nc12"
**Result** 1.02

**Query** For the record O=C(Nc1ccccc1C(=O)NC1CCCCNC1=O)c1cc2ccccc2s1 (stereo unspecified) , what value of NF-kB SEAP reporter activity is listed for RAW-Dual?
**Result** 1.06

###

System: RAW-Dual
Assay: NF-kB SEAP reporter activity, fold change vs agonist alone; higher = enhanced NF-kB activity
Settings: library stock concentration (final ~1000-fold dilution): 10 mM; cytotoxicity flag (confluency mask): not cytotoxic; agonist: Imiquimod (TLR7) […]
Over roughly 2,900 compounds, “NF-kB SEAP reporter activity, fold change vs agonist alone” has its median near 0.99; the highest 2% begin near 2.6. What follows is part of a selection rich in the highest values, with near analogues and random picks from the rest.
Lab note: compare NF-kB SEAP reporter activity against 0.9. Equal or greater, write label 1. Smaller, write label 0.

**Query** Could you tell me if the measured NF-kB SEAP reporter activity of "COC1=CC(c2cc3ccccc3[nH]2)=N/C1=C\c1[nH]c(C)cc1C.CS(=O)(=O)O" reaches 0.9 or more?
**Result** label 1

**Query** Does NF-kB SEAP reporter activity meet or surpass 0.9 for CC1OC(OC2C(Oc3cc(O)c(C(=O)CCc4ccc(O)cc4)c(O)c3)OC(CO)C(O)C2O)C(O)C(O)C1O (centres undefined) ?
**Result** label 1

**Query** Decide: NF-kB SEAP reporter activity of "C/C1=C/CC[C@@]2(C)O[C@@H]2[C@H]2OC(=O)[C@H](CN(C)C)[C@@H]2CC1" >= 0.9?
**Result** label 0

**Query** Could you tell me if the measured NF-kB SEAP reporter activity of "COc1ccc(Cn2c3ncnc4c(ncn4Cc4ccc(OC)cc4)c-3nc2=O)cc1" reaches 0.9 or more?
**Result** label 1

**Query** Check if NF-kB SEAP reporter activity >= 0.9 (inclusive). Item: NC(=O)c1cnc2[nH]ccc2c1NC1C2CC3CC1CC(O)(C3)C2 (centres undefined)
**Result** label 0

**Query** Could you tell me if the measured NF-kB SEAP reporter activity of CCCS(=O)(=O)NC1CC(N(C)c2ncnc3[nH]ccc23)C1 (centres undefined) reaches 0.9 or more?
**Result** label 0

**Query** Confirm if NF-kB SEAP reporter activity reported for the molecule "O=C(O)CCc1c[nH]c2ccccc12" is 0.9 or above.
**Result** label 1

**Query** Is it the case that "Cn1cc(C2=C(c3cccc(N)c3)C(=O)NC2=O)c2ccccc21" has NF-kB SEAP reporter activity reaching or exceeding 0.9?
**Result** label 1

These measurements were taken from the supplement of paper PMC10037445.
